For each entry below, report its IC50 value.
Experiment: Antagonist activity at HA-epitope tagged GRP55E expressed with GFP-tagged beta-arr2 in human U2OS cells assessed as LPI-stimulated redistribution of beta-arr2 preincubated for 15 mins by beta-arrestin translocation assay
Assay type: cell-based
One number for each entry, in µM.

Reference set, count: 2
# SMILES STRING, IC50 / µM
measured = [
    ("Cc1cc(C)c2nc(-c3ccccn3)cc(C(=O)Nc3ccc(S(=O)(=O)Nc4onc(C)c4C)cc3)c2c1", 0.22),
    ("Cc1nc(N2CCN(C(=O)c3ccco3)CC2)c2c3c(sc2n1)CCCC3", 0.7),
]

Could you now look at the following molecule, please?
Problem: Note IC50 for the molecule shown: `Cc1ccc(C2(C(=O)N3CCC(n4nc(-c5ccccc5)oc4=O)CC3)CC2)cc1`
Solution: 1.1

* * *

Target: G-protein coupled receptor 55 (Homo sapiens, UniProt Q9Y2T6)
Sequence (Q9Y2T6 whole entry, looked up, stated change not applied, the tested form may be a part): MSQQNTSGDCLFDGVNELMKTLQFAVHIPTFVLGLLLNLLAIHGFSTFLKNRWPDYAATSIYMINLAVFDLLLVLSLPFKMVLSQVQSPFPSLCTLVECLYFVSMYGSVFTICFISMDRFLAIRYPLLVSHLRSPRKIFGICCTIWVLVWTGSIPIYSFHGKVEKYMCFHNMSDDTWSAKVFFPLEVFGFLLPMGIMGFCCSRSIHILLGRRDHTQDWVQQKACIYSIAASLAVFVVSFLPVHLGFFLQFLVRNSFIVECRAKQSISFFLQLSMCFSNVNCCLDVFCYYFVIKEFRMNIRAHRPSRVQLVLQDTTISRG
Assay: Antagonist activity at beta-galactosidase fragment-fused GRP55 (unknown origin) over-expressed with N-terminal deletion beta-galactosidase mutant-tagged beta-arr2 in […] cells assessed as inhibition of LPI induced beta-arrestin activity preincubated for 30 mins by PathHunter chemiluminescent complementation assay
Type: cell-based
Settings: cho-k1; read-out: IC50
QUANTITY KIND: pIC50
Give bare numbers, as −log10 of the molar value.

# COMPOUND, pIC50
measured = [
    ("O=C(N1CCC(n2nc(-c3ccccc3)oc2=O)CC1)C1(c2ccc(Cl)cc2)CC1", 6.19),
    ("COc1ccc(C2(C(=O)N3CCC(n4nc(-c5ccc(C(F)(F)F)cc5)oc4=O)CC3)CC2)cc1", 5.74),
    ("O=C(N1CCC(n2nc(-c3cccnc3)oc2=O)CC1)C1(c2ccccc2)CC1", 6.38),
    ("COc1ccc(-c2nn(C3CCN(C(=O)C4(c5ccccc5)CC4)CC3)c(=O)o2)cc1", 5.15),
    ("O=C(N1CCC(n2nc(-c3ccccc3)oc2=O)CC1)C1(c2ccc(Cl)cc2Cl)CC1", 5.60),
]

Could you tell me pIC50 for each of these compounds? They are listed below.
1. O=C(N1CCC(n2nc(-c3ccccc3)oc2=O)CC1)C1(c2ccccc2)CC1
2. Cc1ccc(C2(C(=O)N3CCC(n4nc(-c5ccccc5)oc4=O)CC3)CC2(C)C)cc1 (racemic)

Solution:
[4.92, 6.11]

Origin of values: ChEMBL document CHEMBL3774327
